Can you tell me MTD for the items I'm about to list?
- Tested on: Mus musculus
- assay.remarks: The maximum tolerated dose (MTD) was defined as the highest dose of compound that did not show any signs of toxicity in mice after po administration.
- Assay type: functional

Query :: Reported MTD for Mus musculus, given CCn1cc2c(=O)[nH]nc-2c2ccc(-c3ccncc3)cc21 ?
Result :: >200 mg/kg

Query :: Reported MTD for Mus musculus, given CCn1c(C)c2c(=O)onc-2c2ccc(-c3ccncc3)cc21 ?
Result :: >50 mg/kg

Query :: Reported MTD for Mus musculus, given CCn1cc2c(=O)onc-2c2ccc(-c3ccncc3)cc21 ?
Result :: >400 mg/kg

Query :: Reported MTD for Mus musculus, given CCn1cc(C(N)=O)c(=O)c2ccc(-c3ccncc3)cc21 ?
Result :: 50 mg/kg

Query :: Reported MTD for Mus musculus, given NC(=O)c1cn(-c2ccc(F)cc2)c2cc(-c3ccncc3)ccc2c1=O ?
Result :: 50 mg/kg

Query :: Reported MTD for Mus musculus, given Nc1nc2c(ncn2COCCO)c(=O)[nH]1 [ACYCLOVIR] ?
Result :: >200 mg/kg
